- Tested on: ACHN
- Experimental Protocol: NCI tumour cell line growth inhibition, 48 h
Activity calls are given as the source filed them. Cut-off read from the data, not from the text of the source: active = GI50 up to about 1.1 µM and inactive = higher.
This listing pairs compounds with measured GI50.
Observed Property: GI50

[[record]]
compound = "CC(CO)CCNc1ncnc2c1ncn2CCC#N (stereo unspecified)"
system_name = "ACHN"
result = "> 100 µM (inactive)"

[[record]]
compound = "O=C(NN1C(=O)CS(=O)(=O)C1c1cccc(F)c1)c1ccncc1 (stereo unspecified)"
system_name = "ACHN"
result = "> 100 µM (inactive)"

[[record]]
compound = "CCCCCCCCCCCCCCCCCCN(C)CC(COC)OP(=O)([O-])OCC[N+](C)(C)C (stereo unspecified)"
system_name = "ACHN"
result = "1.91 µM (inactive)"

[[record]]
compound = "COC(=O)c1ccccc1N1C(=O)Cc2ccccc2C1=O"
system_name = "ACHN"
result = "> 100 µM (inactive)"

[[record]]
compound = "COc1ccc(CC2C(=O)NC(C)C(=O)N(C)C3Cc4ccc(cc4)Oc4cc(ccc4O)CC(C(=O)NC(C)C(=O)NC(C)C(=O)N2C)N(C)C3=O)cc1 (stereo unspecified)"
system_name = "ACHN"
result = "0.0738 µM (active)"

[[record]]
compound = "COC(=O)[C@H](Cc1ccccc1)NC(=O)N1CCN(C(=O)N[C@@H](Cc2ccccc2)C(=O)OC)CCN(C(=O)N[C@@H](Cc2ccccc2)C(=O)OC)CC1"
system_name = "ACHN"
result = "> 100 µM (inactive)"

[[record]]
compound = "CC1=CCC[C@@]2(C)C(CC[C@@H]2C(C)/C=C/C(C)C)c2ccc(cc2C(=O)O)C[C@@H](O)CC1 (stereo partly specified)"
system_name = "ACHN"
result = "6.37 µM (inactive)"

[[record]]
compound = "C/C=C/C=C/C1=NN(c2cccc(S(=O)(=O)O)c2)C2(C1)C(Cl)C(=O)N2c1nc2ccccc2s1 (stereo unspecified)"
system_name = "ACHN"
result = "15.4 µM (inactive)"

[[record]]
compound = "O=c1c2ccccc2[nH]c2cc(O)cc(O)c12"
system_name = "ACHN"
result = "26.4 µM (inactive)"

[[record]]
compound = "CC1(C)CCc2cc3c(-c4ccccc4)cc(=O)oc3cc2O1"
system_name = "ACHN"
result = "> 100 µM (inactive)"

[[record]]
compound = "Nc1ccccc1C(=O)NNC(=O)c1ccccc1N"
system_name = "ACHN"
result = "> 100 µM (inactive)"


====

- System: CCRF-CEM
- Experimental Protocol: NCI tumour cell line growth inhibition, 48 h
Calls of active or inactive are those of the source. Rule as the data show it: active = GI50 up to about 1.1 µM and inactive = higher. Peptide text beside a SMILES is read from it. * marks the point of attachment. Boc = CC(C)(C)OC(=O)*
Possible outcomes: 1 (yes) for active, 0 (no) for inactive

[[record]]
molecule = "COC(=O)NC(Cc1ccccc1)NC(=O)OC(C)(C)C (centres undefined)"
label_value = "0 (no)"

[[record]]
molecule = "CC(=O)Nc1ccc(-c2nnc(SCC(=O)Nc3ccccc3[N+](=O)[O-])o2)cc1"
label_value = "0 (no)"

[[record]]
molecule = "NC1CCCCC1.O=C(O)C1(P(=O)(O)O)CC1"
label_value = "0 (no)"

[[record]]
molecule = "O=S(=O)(N/N=C/c1cccc(/C=N/NS(=O)(=O)c2ccccc2)c1)c1ccccc1"
label_value = "0 (no)"

[[record]]
molecule = "COC(=O)C(Cc1c[nH]c2ccccc12)NC(=O)C(Cc1c[nH]c2ccccc12)NC(=O)C(Cc1c[nH]c2ccccc12)NC(=O)C(Cc1c[nH]c2ccccc12)NC(=O)C(Cc1c[nH]c2ccccc12)NC(=O)OC(C)(C)C (centres undefined) (Boc-WWWWW-OMe; configuration not given here)"
label_value = "0 (no)"

[[record]]
molecule = "N#CC(C#N)=C(N)/C(C#N)=C/c1ccc(O)c(O)c1"
label_value = "0 (no)"

[[record]]
molecule = "COc1ccc2c(c1)c1nn(CCN(C)C)c3ccc4c(=O)n(CCN(C)C)c(=O)n2c4c13"
label_value = "1 (yes)"

[[record]]
molecule = "CC1C=CC(C)C2(O)C(=O)NC(O)C12 (centres undefined)"
label_value = "0 (no)"

[[record]]
molecule = "Cc1ccc(Cl)cc1/N=N/C(=O)NNc1cc(Cl)ccc1C"
label_value = "0 (no)"

